Sourced from paper PMC6176987

TESTED TARGET: CDK9/cyclin T (Homo sapiens, UniProt P50750)
Sequence (P50750 whole entry): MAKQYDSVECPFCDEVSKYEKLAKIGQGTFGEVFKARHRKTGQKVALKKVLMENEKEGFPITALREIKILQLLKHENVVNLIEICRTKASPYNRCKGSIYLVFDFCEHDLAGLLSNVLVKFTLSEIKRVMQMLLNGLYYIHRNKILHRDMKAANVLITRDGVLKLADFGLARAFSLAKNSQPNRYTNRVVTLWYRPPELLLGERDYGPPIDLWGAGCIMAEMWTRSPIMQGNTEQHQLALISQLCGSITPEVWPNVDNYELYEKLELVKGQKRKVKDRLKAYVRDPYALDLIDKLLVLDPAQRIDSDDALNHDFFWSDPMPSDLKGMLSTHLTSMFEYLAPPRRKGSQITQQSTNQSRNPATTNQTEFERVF
Sequence (O60563 whole entry partner): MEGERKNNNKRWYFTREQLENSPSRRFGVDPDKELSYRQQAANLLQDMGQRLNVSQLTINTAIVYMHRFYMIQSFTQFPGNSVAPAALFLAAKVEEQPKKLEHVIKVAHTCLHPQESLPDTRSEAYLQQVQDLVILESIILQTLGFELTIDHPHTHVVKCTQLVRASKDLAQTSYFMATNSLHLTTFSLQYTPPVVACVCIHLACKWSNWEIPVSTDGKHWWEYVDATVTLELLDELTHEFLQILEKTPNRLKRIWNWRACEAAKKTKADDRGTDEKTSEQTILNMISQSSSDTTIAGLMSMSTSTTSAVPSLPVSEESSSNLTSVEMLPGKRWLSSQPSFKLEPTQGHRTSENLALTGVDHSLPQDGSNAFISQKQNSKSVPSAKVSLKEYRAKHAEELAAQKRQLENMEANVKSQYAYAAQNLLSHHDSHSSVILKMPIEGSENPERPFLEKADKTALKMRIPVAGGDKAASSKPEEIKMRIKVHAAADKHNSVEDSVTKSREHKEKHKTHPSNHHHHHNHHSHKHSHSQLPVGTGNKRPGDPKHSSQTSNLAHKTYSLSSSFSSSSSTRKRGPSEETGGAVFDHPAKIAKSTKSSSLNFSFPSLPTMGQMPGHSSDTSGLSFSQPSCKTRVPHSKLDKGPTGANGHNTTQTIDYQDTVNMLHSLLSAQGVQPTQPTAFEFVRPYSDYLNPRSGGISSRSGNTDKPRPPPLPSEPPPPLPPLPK
EXPERIMENT SUMMARY: Recombinant protein kinase assay, CDK9/cyclin T
MEASUREMENT CONTEXT: 15 µM ATP
pIC50: −log10 of the molar value.
Please provide measured pIC50 for the entries that follow.

The reported value for COc1cc(/C=C2\N=C(Nc3ccc(N4CCN(C)CC4)cc3)NC2=O)ccc1O in terms of pIC50 is 6.49

So for O=C1NC(Nc2ccccc2)=N/C1=C\c1ccc2c(c1)OCO2 , the logged pIC50 turned out to be < 5.00

Item: O=C1NC(Nc2ccccc2)=N/C1=C\c1ccc2c(c1)OCCCO2 | pIC50: < 5.00
